# testedOn: N-terminal HiBiT tagged BCL6 (Homo sapiens, UniProt P41182)
# Construct: expressed in transfected cells; host or cells: HT1080 (ATCC CCL-121), stably transduced with lentivirus pLV-UBC-N-HiBiT-BCL6-PGK-puro
# runDescription: HiBiT based degradation assay
# Type: cell-based
# conditionSet: HT1080 cells expressing N-terminal HiBiT tagged BCL6; 5 hours of incubation; four-parameter logistic model; read-out: EC50 (5 hr)
Quick list: DC50 per entry.

Past entries and their recorded results:
CNC(=O)COc1cc2cc(Nc3nc(N4CCN(CC5CCN(c6cccc7c(C8CCC(=O)NC8=O)nn(C)c67)CC5)[C@H](C(C)(C)O)C4)ncc3Cl)cnc2n(C(C)C)c1=O (stereo partly drawn) [Compound 208a] | 0.01 to 0.1 µM
CNC(=O)COc1cc2cc(Nc3nc(N4CCC5(CC4)CN(CC4CCN(c6cccc7c(C8CCC(=O)NC8=O)nn(C)c67)CC4)C5)ncc3Cl)cnc2n(C)c1=O (stereo not drawn) | < 0.01 µM

Field request: DC50 | item: CNC(=O)COc1cc2cc(Nc3nc(N4CC[C@H](CN5CCN(c6cccc7c(C8CCC(=O)NC8=O)nn(C)c67)CC5)[C@@H](F)C4)ncc3Cl)cnc2n(C(C)C)c1=O (relative stereo) [Compound 238b]
0.01 to 0.1 µM

Source: patent US20260241012A1
